- assay.overview: Oral bioavailability in rat at 1 mg/kg administered as cassette dose
- Format: ADME, organism-based
- protocol.conditions: in vivo

| given.smiles | unit | bioavailability |
| --- | --- | --- |
| O=C(Nc1ccccn1)C1=C(O)[C@@H]2Oc3c(O)ccc4c3[C@@]23CCN(CC2CC2)[C@H](C4)[C@]3(O)C1 | % | 55 |
| COC(=O)C(C)(C)NC(=O)C1=C(O)[C@@H]2Oc3c(O)ccc4c3[C@@]23CCN(CC2CC2)[C@H](C4)[C@]3(O)C1 | % | 68 |
| CC(=O)C1=C(O)[C@@H]2Oc3c(O)ccc4c3[C@@]23CCN(CC2CC2)[C@H](C4)[C@]3(O)C1 | % | 4 |
| Cc1n[nH]c2c1C[C@@]1(O)[C@H]3Cc4ccc(O)c5c4[C@@]1(CCN3CC1CC1)[C@H]2O5 | % | 26.9 |

###

- tested.on: UniProt P35372
- Sequence (P35372 whole entry): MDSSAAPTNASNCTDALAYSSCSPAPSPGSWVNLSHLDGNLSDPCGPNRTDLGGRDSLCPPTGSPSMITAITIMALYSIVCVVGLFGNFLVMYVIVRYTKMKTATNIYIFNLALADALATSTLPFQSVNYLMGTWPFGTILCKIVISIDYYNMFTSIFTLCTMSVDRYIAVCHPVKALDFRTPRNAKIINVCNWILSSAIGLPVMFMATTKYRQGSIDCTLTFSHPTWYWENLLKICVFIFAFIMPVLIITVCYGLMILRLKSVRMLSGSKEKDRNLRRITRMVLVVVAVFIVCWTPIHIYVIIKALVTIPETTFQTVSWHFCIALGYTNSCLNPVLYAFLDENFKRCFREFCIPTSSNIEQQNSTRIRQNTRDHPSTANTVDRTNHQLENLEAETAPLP
- assay.overview: Displacement of [3H]-DAMGO from recombinant human mu-opioid receptor expressed in CHOK1 cells
pKi: −log10 of the molar value.
Label class 1 for high-side pKi (at or above 8) and class 0 for low-side pKi (below it).

| given.smiles | qualitative.label |
| --- | --- |
| O=C(C1=C(O)[C@@H]2Oc3c(O)ccc4c3[C@@]23CCN(CC2CC2)[C@H](C4)[C@]3(O)C1)N1CCCC1 | class 1 |
| C[C@H](CO)NC(=O)C1=C(O)[C@@H]2Oc3c(O)ccc4c3[C@@]23CCN(CC2CC2)[C@H](C4)[C@]3(O)C1 | class 0 |
| O=C(O)c1ccc2c3c([nH]c2c1Cl)[C@@H]1Oc2c(O)ccc4c2[C@@]12CCN(CC1CC1)[C@H](C4)[C@]2(O)C3 | class 0 |
| N#Cc1ccc(NC(=O)C2=C(O)[C@@H]3Oc4c(O)ccc5c4[C@@]34CCN(CC3CC3)[C@H](C5)[C@]4(O)C2)cc1 | class 1 |
| CCC(=O)C1=C(O)[C@@H]2Oc3c(O)ccc4c3[C@@]23CCN(CC2CC2)[C@H](C4)[C@]3(O)C1 | class 1 |
| O=C(O)c1ccc2c3c([nH]c2c1)[C@@H]1Oc2c(O)ccc4c2[C@@]12CCN(CC1CC1)[C@H](C4)[C@]2(O)C3 | class 0 |
| CC(=O)C1=C(O)[C@@H]2Oc3c(O)ccc4c3[C@@]23CCN(CC2CC2)[C@H](C4)[C@]3(O)C1 | class 1 |
| CC(C)(NC(=O)C1=C(O)[C@@H]2Oc3c(O)ccc4c3[C@@]23CCN(CC2CC2)[C@H](C4)[C@]3(O)C1)C(=O)NS(C)(=O)=O | class 0 |
| CC(C)(NC(=O)C1=C(O)[C@@H]2Oc3c(O)ccc4c3[C@@]23CCN(CC2CC2)[C@H](C4)[C@]3(O)C1)C(=O)O | class 0 |
| O=C(Nc1ccc2cc[nH]c2c1)C1=C(O)[C@@H]2Oc3c(O)ccc4c3[C@@]23CCN(CC2CC2)[C@H](C4)[C@]3(O)C1 | class 1 |
| Cc1n[nH]c2c1C[C@@]1(O)[C@H]3Cc4ccc(O)c5c4[C@@]1(CCN3CC1CC1)[C@H]2O5 | class 0 |
| COC(=O)C1(NC(=O)C2=C(O)[C@@H]3Oc4c(O)ccc5c4[C@@]34CCN(CC3CC3)[C@H](C5)[C@]4(O)C2)CC1 | class 1 |
| O=C(NCc1ccccc1)C1=C(O)[C@@H]2Oc3c(O)ccc4c3[C@@]23CCN(CC2CC2)[C@H](C4)[C@]3(O)C1 | class 1 |

###

- assay.overview: Total clearance in rat at 1 mg/kg, po administered as cassette dose
- Type: ADME, organism-based
- protocol.conditions: in vivo
Measured CL/F values are reported for all entries that follow.
quantity: CL/F (mL/min/kg)

| compound | experimental.result |
| --- | --- |
| CC(C)(NC(=O)C1=C(O)[C@@H]2Oc3c(O)ccc4c3[C@@]23CCN(CC2CC2)[C@H](C4)[C@]3(O)C1)C(=O)NS(C)(=O)=O | 15 |
| O=C(O)c1ccc2c3c([nH]c2c1Cl)[C@@H]1Oc2c(O)ccc4c2[C@@]12CCN(CC1CC1)[C@H](C4)[C@]2(O)C3 | 18.1 |
| COC(=O)C(C)(C)NC(=O)C1=C(O)[C@@H]2Oc3c(O)ccc4c3[C@@]23CCN(CC2CC2)[C@H](C4)[C@]3(O)C1 | 25 |
| N#Cc1ccc(NC(=O)C2=C(O)[C@@H]3Oc4c(O)ccc5c4[C@@]34CCN(CC3CC3)[C@H](C5)[C@]4(O)C2)cc1 | 8.5 |
| O=C(C1=C(O)[C@@H]2Oc3c(O)ccc4c3[C@@]23CCN(CC2CC2)[C@H](C4)[C@]3(O)C1)N1CCCC1 | 102 |
| O=C(Nc1ccc2cc[nH]c2c1)C1=C(O)[C@@H]2Oc3c(O)ccc4c3[C@@]23CCN(CC2CC2)[C@H](C4)[C@]3(O)C1 | 28 |
| Cc1n[nH]c2c1C[C@@]1(O)[C@H]3Cc4ccc(O)c5c4[C@@]1(CCN3CC1CC1)[C@H]2O5 | 199 |
| CC(=O)C1=C(O)[C@@H]2Oc3c(O)ccc4c3[C@@]23CCN(CC2CC2)[C@H](C4)[C@]3(O)C1 | 233 |
| C[C@H](CO)NC(=O)C1=C(O)[C@@H]2Oc3c(O)ccc4c3[C@@]23CCN(CC2CC2)[C@H](C4)[C@]3(O)C1 | 27 |
| O=C(Nc1ccccc1)C1=C(O)[C@@H]2Oc3c(O)ccc4c3[C@@]23CCN(CC2CC2)[C@H](C4)[C@]3(O)C1 | 36 |
| CC(C)(NC(=O)C1=C(O)[C@@H]2Oc3c(O)ccc4c3[C@@]23CCN(CC2CC2)[C@H](C4)[C@]3(O)C1)c1nc(-c2ccccc2)no1 [NALDEMEDINE] | 20 |
| O=C(NCc1ccccc1)C1=C(O)[C@@H]2Oc3c(O)ccc4c3[C@@]23CCN(CC2CC2)[C@H](C4)[C@]3(O)C1 | 61 |
| CC(C)NC(=O)C1=C(O)[C@@H]2Oc3c(O)ccc4c3[C@@]23CCN(CC2CC2)[C@H](C4)[C@]3(O)C1 | 41 |

###

// values below are reported pKi
- tested.on: Delta-type opioid receptor (Homo sapiens, UniProt P41143)
- Sequence (P41143 whole entry): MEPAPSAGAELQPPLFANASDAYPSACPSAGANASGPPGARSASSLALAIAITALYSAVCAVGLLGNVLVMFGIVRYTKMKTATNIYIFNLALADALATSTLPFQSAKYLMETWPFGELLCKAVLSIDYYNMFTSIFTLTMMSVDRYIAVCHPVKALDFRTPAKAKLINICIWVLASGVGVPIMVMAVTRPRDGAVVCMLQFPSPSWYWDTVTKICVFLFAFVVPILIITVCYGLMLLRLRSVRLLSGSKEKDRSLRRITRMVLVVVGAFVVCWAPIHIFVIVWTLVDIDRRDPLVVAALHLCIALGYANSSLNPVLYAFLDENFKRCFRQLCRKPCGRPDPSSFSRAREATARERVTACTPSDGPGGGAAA
- assay.overview: Displacement of [3H]-DADLE from recombinant human delta-opioid receptor expressed in HEK293 cells
pKi: −log10 of the molar value.

| given.smiles | tested.on | pKi |
| --- | --- | --- |
| O=C(NCc1ccccc1)C1=C(O)[C@@H]2Oc3c(O)ccc4c3[C@@]23CCN(CC2CC2)[C@H](C4)[C@]3(O)C1 | Delta-type opioid receptor (Homo sapiens, UniProt P41143) | 7.80 |
| O=C(Nc1ccccn1)C1=C(O)[C@@H]2Oc3c(O)ccc4c3[C@@]23CCN(CC2CC2)[C@H](C4)[C@]3(O)C1 | Delta-type opioid receptor (Homo sapiens, UniProt P41143) | 8.17 |
| O=C(O)c1ccc2c3c([nH]c2c1Cl)[C@@H]1Oc2c(O)ccc4c2[C@@]12CCN(CC1CC1)[C@H](C4)[C@]2(O)C3 | Delta-type opioid receptor (Homo sapiens, UniProt P41143) | 9.00 |
| Cc1n[nH]c2c1C[C@@]1(O)[C@H]3Cc4ccc(O)c5c4[C@@]1(CCN3CC1CC1)[C@H]2O5 | Delta-type opioid receptor (Homo sapiens, UniProt P41143) | 8.92 |
| O=C(C1=C(O)[C@@H]2Oc3c(O)ccc4c3[C@@]23CCN(CC2CC2)[C@H](C4)[C@]3(O)C1)N1CCCC1 | Delta-type opioid receptor (Homo sapiens, UniProt P41143) | 8.13 |
| CC(C)(NC(=O)C1=C(O)[C@@H]2Oc3c(O)ccc4c3[C@@]23CCN(CC2CC2)[C@H](C4)[C@]3(O)C1)C(=O)NS(C)(=O)=O | Delta-type opioid receptor (Homo sapiens, UniProt P41143) | 8.26 |
| O=C(Nc1ccc2cc[nH]c2c1)C1=C(O)[C@@H]2Oc3c(O)ccc4c3[C@@]23CCN(CC2CC2)[C@H](C4)[C@]3(O)C1 | Delta-type opioid receptor (Homo sapiens, UniProt P41143) | 7.72 |
| C[C@H](CO)NC(=O)C1=C(O)[C@@H]2Oc3c(O)ccc4c3[C@@]23CCN(CC2CC2)[C@H](C4)[C@]3(O)C1 | Delta-type opioid receptor (Homo sapiens, UniProt P41143) | 7.74 |

###

- assay.overview: Brain to blood partition coefficient, Kp of the compound in rat at 1 mg/kg, po administered as cassette dose
- Assay type: ADME, organism-based

| given.smiles | Kp |
| --- | --- |
| O=C(O)c1ccc2c3c([nH]c2c1)[C@@H]1Oc2c(O)ccc4c2[C@@]12CCN(CC1CC1)[C@H](C4)[C@]2(O)C3 | 0.03 |
| O=C(Nc1ccc2cc[nH]c2c1)C1=C(O)[C@@H]2Oc3c(O)ccc4c3[C@@]23CCN(CC2CC2)[C@H](C4)[C@]3(O)C1 | 0.04 |
| N#Cc1ccc(NC(=O)C2=C(O)[C@@H]3Oc4c(O)ccc5c4[C@@]34CCN(CC3CC3)[C@H](C5)[C@]4(O)C2)cc1 | 0.03 |
